Listing of recorded ELISA Signal [100 nM Fab] by entry.
- testedOn: T1, Recombinant Human DLL4 (delta-like protein 4) (human, UniProt Q9NR61 27-524)
- T1 construct: Bought recombinant human DLL4 (R&D Systems Cat#1506-D4/CF); also called rHuman DLL4
- measurementDescription: ELISA, DLL4-coated plate, 100 nM Fab
Could you keep your reply to the number by itself?

Example binders with recorded ELISA Signal [100 nM Fab]:
- binder: "Fab VH5-51_IGHD5-18*01>3_IGHJ4*01 G100K/G104T & V3-4_IGLJ1*01 M94G (Fab, V domains shown, Fab; expressed with CH1 (His and Flag tags) and lambda CL from the expression plasmids; also called H:KT & M94G) VH: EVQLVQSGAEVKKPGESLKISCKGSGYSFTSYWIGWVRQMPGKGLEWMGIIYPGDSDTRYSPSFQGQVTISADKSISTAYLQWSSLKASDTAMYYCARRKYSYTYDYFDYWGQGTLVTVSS VL: QTVVTQEPSFSVSPGGTVTLTCGLSSGSVSTSYYPSWYQQTPGQAPRTLIYSTNTRSSGVPDRFSGSILGNKAALTITGAQADDESDYYCVLYGGSGISYVFGTGTKVTVL"
  dataValue: 0.01
- binder: "Fab VH5-51_IGHD5-18*01>3_IGHJ4*01 G100K/G104T & V3-4_IGLJ1*01 V91H (Fab, V domains shown, Fab; expressed with CH1 (His and Flag tags) and lambda CL from the expression plasmids; also called H:KT & V91H) VH: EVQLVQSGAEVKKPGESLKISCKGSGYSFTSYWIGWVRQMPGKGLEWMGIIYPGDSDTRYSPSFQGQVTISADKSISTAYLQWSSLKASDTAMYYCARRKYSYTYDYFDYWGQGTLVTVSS VL: QTVVTQEPSFSVSPGGTVTLTCGLSSGSVSTSYYPSWYQQTPGQAPRTLIYSTNTRSSGVPDRFSGSILGNKAALTITGAQADDESDYYCHLYMGSGISYVFGTGTKVTVL"
  dataValue: 0.01

Fill in ELISA Signal [100 nM Fab] for record Fab VH5-51_IGHD5-18*01>3_IGHJ4*01 G100K/G104T & V3-4_IGLJ1*01 M94R (Fab, V domains shown, Fab; expressed with CH1 (His and Flag tags) and lambda CL from the expression plasmids; also called H:KT & M94R) VH: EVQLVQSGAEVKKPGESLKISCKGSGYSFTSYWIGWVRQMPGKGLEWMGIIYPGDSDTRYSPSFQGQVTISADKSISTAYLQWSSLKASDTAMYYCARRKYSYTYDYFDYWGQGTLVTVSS VL: QTVVTQEPSFSVSPGGTVTLTCGLSSGSVSTSYYPSWYQQTPGQAPRTLIYSTNTRSSGVPDRFSGSILGNKAALTITGAQADDESDYYCVLYRGSGISYVFGTGTKVTVL 0.01

Fill in ELISA Signal [100 nM Fab] for record Fab VH5-51_IGHD5-18*01>3_IGHJ4*01 G100K/G104T & V3-4_IGLJ1*01 M94E (Fab, V domains shown, Fab; expressed with CH1 (His and Flag tags) and lambda CL from the expression plasmids; also called H:KT & M94E) VH: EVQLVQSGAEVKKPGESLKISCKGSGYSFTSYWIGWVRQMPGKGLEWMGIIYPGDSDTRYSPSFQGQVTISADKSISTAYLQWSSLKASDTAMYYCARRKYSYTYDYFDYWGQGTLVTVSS VL: QTVVTQEPSFSVSPGGTVTLTCGLSSGSVSTSYYPSWYQQTPGQAPRTLIYSTNTRSSGVPDRFSGSILGNKAALTITGAQADDESDYYCVLYEGSGISYVFGTGTKVTVL 0.01

Fill in ELISA Signal [100 nM Fab] for record Fab VH5-51_IGHD5-18*01>3_IGHJ4*01 G100K/G104T & V3-4_IGLJ1*01 V91S (Fab, V domains shown, Fab; expressed with CH1 (His and Flag tags) and lambda CL from the expression plasmids; also called H:KT & V91S) VH: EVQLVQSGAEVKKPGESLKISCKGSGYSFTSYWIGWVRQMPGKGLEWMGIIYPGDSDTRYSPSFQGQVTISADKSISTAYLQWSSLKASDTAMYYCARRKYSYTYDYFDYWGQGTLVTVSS VL: QTVVTQEPSFSVSPGGTVTLTCGLSSGSVSTSYYPSWYQQTPGQAPRTLIYSTNTRSSGVPDRFSGSILGNKAALTITGAQADDESDYYCSLYMGSGISYVFGTGTKVTVL 0.01

Fill in ELISA Signal [100 nM Fab] for record Fab VH5-51_IGHD5-18*01>3_IGHJ4*01 G100K/G104T & V3-4_IGLJ1*01 V91C (Fab, V domains shown, Fab; expressed with CH1 (His and Flag tags) and lambda CL from the expression plasmids; also called H:KT & V91C) VH: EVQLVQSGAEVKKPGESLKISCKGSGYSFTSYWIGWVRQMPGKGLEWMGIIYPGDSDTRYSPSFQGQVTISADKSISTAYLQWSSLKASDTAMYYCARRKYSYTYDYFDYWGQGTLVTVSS VL: QTVVTQEPSFSVSPGGTVTLTCGLSSGSVSTSYYPSWYQQTPGQAPRTLIYSTNTRSSGVPDRFSGSILGNKAALTITGAQADDESDYYCCLYMGSGISYVFGTGTKVTVL 0.02
